biological target: recombinant SARS-CoV-2 RBD with C-terminal AviTag (SARS-CoV-2, UniProt P0DTC2 319-541)
parameterMeasured: Kd (nM)
Numeric only. Scale: nM

So for MBP-5HVZ-R2E-F4-H6 (VHH, not shown: large carriers; small tags and cut ends) VHH: QVQLVESGGGLVQPGGSLRLSCAASGETFSSNAMHWFRQAPGKGREFVAAITSGGNDNYSDSVKGRFTISRDNAKNTVYLQMNSLKPEDTAVYYCNAPATEDTSHYPRNYWGQGTQVTVSS , the logged Kd turned out to be 11.4

So for MBP-5HVZ-R5A-A5-H6 (VHH, not shown: large carriers; small tags and cut ends) VHH: QVQLVESGGGLVQPGGSLRLSCAASGSAFATNGLHWFRQAPGKQREFVAGITSNGSINYKDSVKGRFTISRDNAKNTVYLQMNSLKPEDTAVYYCTALLMSYGGGEEYDYWGQGTQVTVSS , the logged Kd turned out to be 24.7

So for MBP-5HVZ-R5A-D4-H6 (VHH, not shown: large carriers; small tags and cut ends) VHH: QVQLVESGGGLVQPGGSLRLSCAASGSAMMINRTHWFRQAPGKEREGVAGITWQGSTYYADSVKGRFTISRDNAKNTVYLQMNSLKPEDTAVYYCNAVAPVHENENYWGQGTQVTVSS , the logged Kd turned out to be 21.1

So for MBP-5HVZ-R5A-A1-H6 (VHH, not shown: large carriers; small tags and cut ends) VHH: QVQLVESGGGLVQPGGSLRLSCAASGAELSYTAIHWFRQAPGKQREFVATINSGGSSYYADSVKGRFTISRDNAKNTVYLQMNSLKPEDTAVYYCTALLDSTYDYWGQGTQVTVSS , the logged Kd turned out to be 29
